assay: Acute toxicity in mouse at 300 mg/kg, ip administered as single dose; format: organism-based; conditions: in vivo

COMPOUND	Activity
CS(=O)(=O)c1ccc(N2N=C(c3ccccc3)/C(=N\O)C2(O)C(F)(F)F)cc1 (centres undefined)	Non-Toxic
Cc1ccc(-c2c(N=O)c(C(F)(F)F)nn2-c2ccc(S(N)(=O)=O)cc2)cc1	Non-Toxic
Cc1ccc(C2=NN(c3ccc(S(N)(=O)=O)cc3)C(O)(C(F)(F)F)/C2=N/O)cc1 (centres undefined)	Non-Toxic
O=Nc1c(C(F)(F)F)n[nH]c1-c1ccco1	Toxic

----------
Reported selectivity ratio values for the following compounds.
test: Selectivity index, ratio of IC50 for HDF cells to IC50 for human HeLa cells; type: toxicity; settings: HDF cells versus HeLa cells, read-out: Ratio IC50
Answer using only a numeral; do not append any unit.

Look over these answered cases.
COMPOUND	selectivity ratio
CC[C@@]1(O)C(=O)OCc2c1cc1n(c2=O)Cc2cc3ccccc3nc2-1	3.24
O=Nc1c(C(F)(F)F)n[nH]c1-c1ccccc1	0.76
Cc1ccc(C2=NN(c3ccc(S(N)(=O)=O)cc3)C(O)(C(F)(F)F)/C2=N/O)cc1 (stereo not drawn)	13.7

We next turn to a different compound, shown below.
Need selectivity ratio of Cn1nc(C(F)(F)F)c(N=O)c1-c1ccccc1 , thanks.
0.77

----------
assay: Antioxidant activity assessed as trolox equivalent of ABTS radical scavenging activity measured after 1 hr by UV-vis spectrophotometric method; type: functional
PARAMETER: Activity

Look over these answered cases.
COMPOUND	PARAMETER	MEASUREMENT
Cc1ccc(C2=NN(c3ccc(S(N)(=O)=O)cc3)C(O)(C(F)(F)F)/C2=N/O)cc1 (centres undefined)	Activity	0.48 equiv
Cn1nc(C(F)(F)F)c(N)c1-c1ccco1	Activity	0.04 equiv

We next turn to a different compound, shown below.
Need Activity of O/N=C1\C(c2ccccc2)=NN(c2ccccc2)C1(O)C(F)(F)F (centres undefined) , thanks.
0.44 equiv

----------
Reported MIC values for the following molecules.
tested on: Shigella flexneri; assay: Antibacterial activity against Shigella flexneri; format: functional

Look over these answered cases.
MOLECULE	TARGET_DESC	MIC
Cl.Nc1c(C(F)(F)F)n[nH]c1-c1ccccc1	Shigella flexneri	> 250 µg/mL
O/N=C1\C(c2ccccc2)=NN(c2ccccc2)C1(O)C(F)(F)F (centres undefined)	Shigella flexneri	> 250 µg/mL
Cc1ccc(-c2c(N)c(C(F)(F)F)nn2-c2ccc(S(N)(=O)=O)cc2)cc1.Cl	Shigella flexneri	> 250 µg/mL
Cc1[nH]nc(C(F)(F)F)c1N=O	Shigella flexneri	250 µg/mL

Need MIC of O=Nc1c(C(F)(F)F)n[nH]c1-c1ccccc1 , thanks.
31.2 µg/mL

Need MIC of CS(=O)(=O)c1ccc(-n2nc(C(F)(F)F)c(N=O)c2-c2ccccc2)cc1 , thanks.
> 250 µg/mL

----------
Reported MIC values for the following compounds.
test system: Trichophyton rubrum; assay: Antifungal activity against Trichophyton rubrum; assay type: functional

Look over these answered cases.
O=Nc1c(C(F)(F)F)n[nH]c1-c1ccccc1 > 200 µg/mL
Cl.Nc1c(C(F)(F)F)n[nH]c1-c1ccccc1 > 200 µg/mL

Need MIC of Cl.Cn1nc(C(F)(F)F)c(N)c1-c1cccs1 , thanks.
> 200 µg/mL

----------
Reported MIC values for the following compounds.
system: Klebsiella pneumoniae; test: Antibacterial activity against Klebsiella pneumoniae; type: functional

Need MIC of CS(=O)(=O)c1ccc(-n2nc(C(F)(F)F)c(N)c2-c2ccccc2)cc1.Cl , thanks.
> 250 µg/mL

Need MIC of Cn1nc(C(F)(F)F)c(N=O)c1-c1ccccc1 , thanks.
> 500 µg/mL

Need MIC of O/N=C1\C(c2ccccc2)=NN(c2ccccc2)C1(O)C(F)(F)F (stereo not drawn) , thanks.
> 250 µg/mL

----------
tested on: Staphylococcus aureus; assay: Antibacterial activity against Staphylococcus aureus; assay type: functional
PARAMETER: MIC (µg/mL)
Give just the numeric value; µg/mL need not be written.

Look over these answered cases.
MOLECULE	READOUT_UNITS	MIC
O=Nc1c(C(F)(F)F)n[nH]c1-c1ccco1	µg/mL	31.2
O/N=C1\C(c2ccccc2)=NN(c2ccccc2)C1(O)C(F)(F)F (centres undefined)	µg/mL	31.2

Need MIC of CN[C@@H]1[C@H](O)[C@H](NC)[C@H]2O[C@@]3(O)C(=O)C[C@@H](C)O[C@H]3O[C@@H]2[C@H]1O , thanks.
31.2

----------
system: Serratia marcescens; assay: Antibacterial activity against Serratia marcescens; format: functional
Reported MIC values for the following compounds.

Need MIC of Cc1[nH]nc(C(F)(F)F)c1N=O , thanks.
250 µg/mL

Need MIC of Cl.Nc1c(C(F)(F)F)n[nH]c1-c1cccs1 , thanks.
> 250 µg/mL

Need MIC of CS(=O)(=O)c1ccc(-n2nc(C(F)(F)F)c(N=O)c2-c2ccccc2)cc1 , thanks.
> 250 µg/mL

Need MIC of Cl.Nc1c(C(F)(F)F)n[nH]c1-c1ccccc1 , thanks.
> 250 µg/mL

Need MIC of Cn1nc(C(F)(F)F)c(N=O)c1-c1ccco1 , thanks.
> 500 µg/mL

Need MIC of Cn1nc(C(F)(F)F)c(N=O)c1-c1ccccc1 , thanks.
> 500 µg/mL

----------
system: Staphylococcus aureus; assay: Antibacterial activity against Staphylococcus aureus; assay type: functional
Reported MIC values for the following compounds.

Look over these answered cases.
Cn1nc(C(F)(F)F)c(N=O)c1-c1cccs1 > 500 µg/mL
Cc1[nH]nc(C(F)(F)F)c1N=O 31.2 µg/mL

Entry Cn1nc(C(F)(F)F)c(N=O)c1-c1ccco1 , system Staphylococcus aureus: what MIC was measured?
15.6 µg/mL

Entry Cl.Nc1c(C(F)(F)F)n[nH]c1-c1cccs1 , system Staphylococcus aureus: what MIC was measured?
> 250 µg/mL

Entry CS(=O)(=O)c1ccc(-n2nc(C(F)(F)F)c(N)c2-c2ccccc2)cc1.Cl , system Staphylococcus aureus: what MIC was measured?
> 250 µg/mL

Entry Cl.Cn1nc(C(F)(F)F)c(N)c1-c1cccs1 , system Staphylococcus aureus: what MIC was measured?
> 250 µg/mL

Entry Cc1ccc(-c2c(N=O)c(C(F)(F)F)nn2-c2ccc(S(N)(=O)=O)cc2)cc1 , system Staphylococcus aureus: what MIC was measured?
> 250 µg/mL

----------
test: Selectivity index, ratio of IC50 for HDF cells to IC50 for human HeLa cells; format: toxicity; settings: HDF cells versus HeLa cells, read-out: Ratio IC50
Reported selectivity ratio values for the following compounds.

Look over these answered cases.
Cc1[nH]nc(C(F)(F)F)c1N=O > 1.62
Cl.Nc1c(C(F)(F)F)n[nH]c1-c1ccccc1 > 53.8
Cl.Cn1nc(C(F)(F)F)c(N)c1-c1ccccc1 > 1350

We next turn to a different compound, shown below.
Need selectivity ratio of Cl.Cn1nc(C(F)(F)F)c(N)c1-c1cccs1 , thanks.
> 2.05

----------
system: Shigella flexneri; test: Antibacterial activity against Shigella flexneri; assay type: functional
Reported MIC values for the following compounds.

O=Nc1c(C(F)(F)F)n[nH]c1-c1ccco1 125 µg/mL

Need MIC of Cl.Cn1nc(C(F)(F)F)c(N)c1-c1cccs1 , thanks.
> 250 µg/mL

Need MIC of Cn1nc(C(F)(F)F)c(N=O)c1-c1ccccc1 , thanks.
> 500 µg/mL

----------
tested on: Serratia marcescens; experiment: Antibacterial activity against Serratia marcescens; assay type: functional
PARAMETER: MIC (µg/mL)
Give just the numeric value; µg/mL need not be written.

CHEMICAL_STRING	READOUT_UNITS	MIC
O=Nc1c(C(F)(F)F)n[nH]c1-c1ccccc1	µg/mL	62.5

We next turn to a different molecule, shown below.
Need MIC of O=Nc1c(C(F)(F)F)n[nH]c1-c1ccco1 , thanks.
125

----------
Reported MIC values for the following compounds.
tested on: Serratia marcescens; experiment: Antibacterial activity against Serratia marcescens; format: functional

Look over these answered cases.
COMPOUND	MEASUREMENT
O/N=C1\C(c2ccccc2)=NN(c2ccccc2)C1(O)C(F)(F)F (stereo not drawn)	> 250 µg/mL
Cc1ccc(-c2c(N=O)c(C(F)(F)F)nn2-c2ccc(S(N)(=O)=O)cc2)cc1	> 250 µg/mL

We next turn to a different compound, shown below.
Need MIC of Cl.Cn1nc(C(F)(F)F)c(N)c1-c1ccccc1 , thanks.
> 250 µg/mL
